Biological target: UniProtKB Q6IN02
Experiment: Peg3 promoter luciferase inhibitors, potency, dose response, cell-based, HeLa, CREF/GAPDH counter-screen panel (AID 624167)
Conditions: HeLa PEG-Prom luciferase reporter, overnight, CREF/GAPDH counter-screens, mean of runs
Active and inactive are the calls of the source.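 How the source made its calls: active means mean IC50 for reducing PEG3 promoter reporter signal at or below a set limit, with IC50 above the limit in both counter screens; inactive means the rest, including counter screen hits.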
Log the outcome using a class from True (active), False (inactive)

Cc1ccc(C)c(CN2CCC(CNC(=O)Nc3ccc(F)c(Cl)c3)CC2)c1
True
Cc1cccc(CS(=O)(=O)c2ncc(Cl)c(C(=O)Nc3ccc(F)cc3)n2)c1
True
CC(C)(c1ccccc1)c1ccc(OCC(O)CNC2CCN(Cc3ccccc3)CC2)cc1 (stereo unspecified)
True
CC(C)CC1C(=O)N(Cc2cn(CCC3OCCO3)nn2)CCS(=O)(=O)N1Cc1ccc(-c2ccc(F)cc2)cc1 (stereo unspecified)
False
COc1ccc(OC)c(Cc2cnc3nc(N)nc(N)c3c2C)c1
False

// next entry
Query: Per the records of this test, what outcome belongs to CCOc1ccc(-c2ccc(SC)nn2)cc1 ?
Response: True

###

System: PEG-3
Assay: Peg3 promoter luciferase inhibitors, potency, dose response, cell-based, HeLa, CREF/GAPDH counter-screen panel (AID 624167)
Conditions: HeLa PEG-Prom luciferase reporter, overnight, CREF/GAPDH counter-screens, run 1, dose range 1, individual replicate IC50 per panel
parameter_measured: IC50
Output should be the measured figure followed by the unit it is expressed in.

O=[N+]([O-])c1ccc(NC2CCN(Cc3ccccc3)CC2)c2ccncc12
23.9 µM
OCCNc1c2ccccc2nc2ccccc12
10.2 µM

List reported IC50 for each of these molecules:
1. CC[C@@H](O)C[C@H]1CCC[C@@]2(C[C@@H]3OC(=O)/C=C/[C@@](C)(O)[C@@H](O)[C@H](C)[C@@H](O)[C@H](OC4CCC(N(C)C)C(C)O4)[C@@H](O)[C@](C)(O)CCCCC/C=C/[C@@H]4CC(C)(C)O[C@@]4(O)C[C@H](O2)[C@H]3C)O1 (some centres undefined)
2. NS(=O)(=O)c1ccc(CCNc2nn3c(-c4ccc(F)c(Cl)c4)cnc3s2)cc1

Response:
18.2 µM
2.86 µM

###

Target: PEG-3 (UniProt Q6IN02)
Sequence (Q6IN02 whole entry, looked up): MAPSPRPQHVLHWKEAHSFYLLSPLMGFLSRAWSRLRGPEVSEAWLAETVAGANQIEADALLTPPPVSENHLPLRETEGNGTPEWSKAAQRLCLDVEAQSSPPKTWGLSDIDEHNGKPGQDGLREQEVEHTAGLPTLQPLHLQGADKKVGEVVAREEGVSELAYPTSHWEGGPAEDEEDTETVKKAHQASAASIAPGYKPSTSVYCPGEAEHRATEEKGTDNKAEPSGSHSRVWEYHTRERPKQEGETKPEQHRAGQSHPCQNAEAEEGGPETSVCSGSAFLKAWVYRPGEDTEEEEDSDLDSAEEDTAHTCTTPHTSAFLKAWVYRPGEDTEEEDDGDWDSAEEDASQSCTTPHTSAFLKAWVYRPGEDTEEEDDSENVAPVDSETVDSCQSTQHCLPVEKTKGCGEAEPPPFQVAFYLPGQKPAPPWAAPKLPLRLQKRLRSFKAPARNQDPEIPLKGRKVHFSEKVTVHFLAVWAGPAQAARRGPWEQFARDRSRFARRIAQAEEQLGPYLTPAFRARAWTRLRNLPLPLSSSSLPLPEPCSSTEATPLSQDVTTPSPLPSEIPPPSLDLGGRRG
Assay: Peg3 promoter luciferase inhibitors, potency, dose response, cell-based, HeLa, CREF/GAPDH counter-screen panel (AID 624167)
Settings: HeLa PEG-Prom luciferase reporter, overnight, CREF/GAPDH counter-screens, mean of runs
Active and inactive are the calls of the source.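 The calls were made as follows: active = mean IC50 for reducing PEG3 promoter reporter signal at or below a set limit, with IC50 above the limit in both counter screens; inactive = the rest, including counter screen hits.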
Answer with one of the outcomes given here: true (1) (active), false (0) (inactive)

Some solved entries appear below for comparison.
CN(C)S(=O)(=O)c1cccc(NC(=O)CSc2nc3c(cc2C#N)C(=O)CC(C)(C)C3)c1
false (0)
CN(C)c1ccc(/C=C(\C#N)c2ccccn2)cc1
true (1)
CCN(CC)c1ccc2nc3ccc(N)cc3[n+](-c3ccccc3)c2c1
true (1)
CCN1C/C(=C/c2ccc(N3CCOCC3)cc2)C(=O)/C(=C/c2ccc(N3CCOCC3)cc2)C1
true (1)
OC1(c2ccc(Cl)c(Cl)c2)C[n+]2ccccc2N1Cc1ccccc1 (stereo unspecified)
true (1)
Cc1ccccc1NC(=O)C(=Cc1ccc(C(=O)O)cc1)C(=O)Nc1ccccc1C
false (0)
O=C(O)c1ccc(N/N=C/c2ccc(OC(=O)c3cccc(Cl)c3)cc2)cc1
true (1)
CC(C)(C)C(=O)Nc1cc2nn(-c3ccccc3)nc2cc1Cl
true (1)
CCN(CC)C(=O)c1ccc(NC(=O)Nc2ccccc2F)cc1
true (1)
COc1cccc(OC)c1C(=O)Nc1cc(C)nn1-c1nc2ccccc2[nH]1
true (1)

Continue with the next compound.
Query: Give the logged outcome of this assay for the following compound: O=C(O)c1cccc(COc2ccccc2Cl)c1
Response: true (1)

###

Test system: PEG-3
Test: Peg3 promoter luciferase inhibitors, potency, dose response, cell-based, HeLa, CREF/GAPDH counter-screen panel (AID 624167)
Conditions: HeLa PEG-Prom luciferase reporter, overnight, CREF/GAPDH counter-screens, run 1, dose range 1, individual replicate IC50 per panel
parameter_measured: pIC50
One number for each entry, as −log10 of the molar value.

Look at each molecule and report its pIC50.
1. Cc1cc(C(=O)CN2C(=O)c3ccccc3S2(=O)=O)c(C)n1-c1ccccc1
2. COCCCNC(=O)c1ccc(Cn2c(=O)c3ccccc3n(Cc3ccccc3C#N)c2=O)cc1
3. CC1CCCCN1CCNC(=O)c1ccc2c(=O)n(Cc3ccc(Cl)cc3)c(=S)[nH]c2c1 (centres undefined)
4. Cc1cccc(-n2ncc3c(N(C)C4CCCCC4)ncnc32)c1
5. CCn1cc(CN2CCC(C(=O)Nc3cccc(-c4cccc(Cl)c4)c3)CC2)c(C)n1
6. COc1ccc(C(=O)NNC(=O)c2ccccn2)cc1
7. Cc1cccc(CN2C(=O)/C(=C\c3ccc(C(=O)NCCN4CCOCC4)cc3)Sc3ccccc32)c1
8. O=C(Nc1ccccc1)c1nc[nH]c1C(=O)NCCCCNC(=O)c1[nH]cnc1C(=O)Nc1ccccc1

Response:
1: 5.53; 2: 5.39; 3: 4.71; 4: 4.65; 5: 4.75; 6: 5.57; 7: 4.74; 8: 4.75

Query: Recorded pIC50 for COC(=O)C1C=CC(OC2OC(COC(C)=O)C(OC(C)=O)C(OC(C)=O)C2OC(C)=O)n2c(=O)n(-c3ccccc3)c(=O)n21 (centres undefined) with PEG-3, please?
Response: 4.99

###

Assay: Peg3 promoter luciferase inhibitors, potency, dose response, cell-based, HeLa, CREF/GAPDH counter-screen panel (AID 624167)
Settings: CREF/GAPDH counter-screens; GAPDH; mean of runs
Calls of active or inactive are those of the source.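 How the source made its calls: active means mean IC50 for reducing PEG3 promoter reporter signal at or below a set limit, with IC50 above the limit in both counter screens; inactive means the rest, including counter screen hits.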
Can you answer with just one of these options? active, inactive

Worked examples follow.
CN=c1sc2c(n1C)C(=O)c1ccccc1C2=O
inactive
C/C(=N\NC(=O)c1cc(C2CC2)nc2ccccc12)c1ccc(O)cc1O
inactive
OCCCNc1nccc(-c2cc(Nc3cccc(Cl)c3)ncn2)n1
inactive
CC1=CC2C(C(O)CC3(C)C2CC(C)C32OCOC23COCO3)C2(C)C/C(=C\O)C(=O)C=C12 (stereo not given)
active
Cc1ccc(OCC(=O)c2cc(C)n(Cc3ccco3)c2C)c([N+](=O)[O-])n1
active

Query: Recorded call for Cc1cc(Br)ccc1NC(=O)CNC(=O)Cn1ncc(Cl)c(Cl)c1=O ?
Response: active

Query: Entry O=C(Nc1ccc(Cc2ccncc2)cc1)c1ccc([N+](=O)[O-])o1 : call = ?
Response: inactive

Query: Could you kindly confirm the outcome this assay logged for O=C(O)c1ccc(N/N=C/c2ccc(OC(=O)c3cccc(Cl)c3)cc2)cc1 ?
Response: active

Query: recorded result category for CCN(CC)S(=O)(=O)c1cccc(C(=O)N/N=C(\C)c2ccc(O)cc2O)c1 in this test
Response: inactive

Query: Given Cc1cc(C(=O)Nc2cccc(C(=O)O)c2)oc1C , state the outcome it received in this test.
Response: active

###

Please provide measured pIC50 for the entries that follow.
Tested on: Rat fibroblasts (CREF)
Assay: Peg3 promoter luciferase inhibitors, potency, dose response, cell-based, HeLa, CREF/GAPDH counter-screen panel (AID 624167)
Details: CREF/GAPDH counter-screens, run 2, dose range 1, individual replicate IC50 per panel
Numbers only, as −log10 of the molar value.

Past entries and their recorded results:
CN=c1scc(-c2cccs2)n1/N=C/c1ccccc1O
5.25
COc1ccc(-n2cc(-c3ccccc3)c3c(N4CCOCC4)ncnc32)cc1
4.15
O=C(/C=C/Nc1ccccc1Br)c1ccccn1
6.22
CC(C)(C)c1ccc(C(=O)O/N=C(\N)c2ccccn2)cc1
4.99

// each listed compound needs a value for pIC50
1. O=C1C(Cl)=C(Nc2ccccc2)C(=O)c2ccccc21
2. COc1ccc(C(=O)O/N=C(\N)c2ccccn2)cc1
3. Cc1cc(C)c2nc(NNC(=O)c3ccc(S(=O)(=O)N4CC(C)CC(C)C4)cc3)sc2c1 (stereo not drawn)
4. CS(=O)(=O)c1ccc(-c2sc3ccccc3c2C#CCCO)cc1
5. COC1=CC(=O)c2c(ccc3ncnc(N)c23)C1=O
6. Cc1nn(-c2nc3ccccc3[nH]2)c(=O)c2ccccc12
7. NC1=C(Br)C(=O)c2ncccc2C1=O

Response:
[5.01, 5.72, 5.47, 4.43, 6.00, 6.51, 5.66]

###

Biological target: PEG-3 (UniProt Q6IN02)
Experiment: Peg3 promoter luciferase inhibitors, potency, dose response, cell-based, HeLa, CREF/GAPDH counter-screen panel (AID 624167)
Conditions: HeLa PEG-Prom luciferase reporter, overnight, CREF/GAPDH counter-screens, mean of runs
The source made the active and inactive calls.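 How the source made its calls: active means mean IC50 for reducing PEG3 promoter reporter signal at or below a set limit, with IC50 above the limit in both counter screens; inactive means the rest, including counter screen hits.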
Hi there, use one of these labels in your reply, thanks! active, inactive

Check out these entries, answers already filled in.
O=C(CCCN1C(=O)/C(=C/c2cccc(Br)c2)SC1=S)Nc1cccnc1
active
Cc1cc(C)c2sc(N(CCCN(C)C)C(=O)c3ccc(S(=O)(=O)N(C)Cc4ccccc4)cc3)nc2c1
active
NC1=C(Br)C(=O)c2ncccc2C1=O
active
O=C1CSC(=S)N1Cc1cccnc1
active
CCCCNc1c(-c2cccc(Sc3ccc(OC)cc3)c2)nc2ccccn12
active
COc1ccc(C(=O)O/N=C(\N)c2ccccn2)cc1
active

Query: Recorded call for Oc1c(Cl)cc(Cl)c2cccnc12 ?
Response: active

Query: Given c1ccc(-c2nc(-c3ccccn3)no2)cc1 , state the outcome it received in this test.
Response: inactive
